IC50 reference
Biological target: human muscarinic acetylcholine M3 receptor (Homo sapiens)
Your answer is read as nM, so omit the unit and give the number.

Consider the following illustrative entries.
[
  {
    "molecule": "CC(C)c1cc(C(=O)N2CCOC3(CCN(Cc4cccc(CCOCCC(=O)N(CCNCCc5ccc(O)c6c5OCC(=O)N6)C5CCCCC5)c4)CC3)C2)cs1 [Example 91]",
    "value.observed": 0.2
  },
  {
    "molecule": "O=C1COc2c(CCNCCN(C(=O)CCOCCc3cccc(CN4CCC5(CC4)CN(C(=O)c4ccc6cccnc6n4)CCO5)c3)C3CCCCC3)ccc(O)c2N1 [Example 161]",
    "value.observed": 0.501
  }
]

We now examine a further molecule.
So, O=C1COc2c(CCNCCN(C(=O)CCOCCc3cccc(CN4CCC5(CC4)CN(C(=O)C4COc6ccccc6O4)CCO5)c3)C3CCCCC3)ccc(O)c2N1 (stereo not drawn) [Example 115] ? Its IC50 was 0.158

====

Biological target: Adrenergic β2 (Homo sapiens, UniProt P07550)
Construct: Adherent H292 cells are removed from tissue culture flasks by treatment with Accutase™ cell detachment solution; endogenous in cells; host or cells: H292 cells
Sequence (P07550 whole entry): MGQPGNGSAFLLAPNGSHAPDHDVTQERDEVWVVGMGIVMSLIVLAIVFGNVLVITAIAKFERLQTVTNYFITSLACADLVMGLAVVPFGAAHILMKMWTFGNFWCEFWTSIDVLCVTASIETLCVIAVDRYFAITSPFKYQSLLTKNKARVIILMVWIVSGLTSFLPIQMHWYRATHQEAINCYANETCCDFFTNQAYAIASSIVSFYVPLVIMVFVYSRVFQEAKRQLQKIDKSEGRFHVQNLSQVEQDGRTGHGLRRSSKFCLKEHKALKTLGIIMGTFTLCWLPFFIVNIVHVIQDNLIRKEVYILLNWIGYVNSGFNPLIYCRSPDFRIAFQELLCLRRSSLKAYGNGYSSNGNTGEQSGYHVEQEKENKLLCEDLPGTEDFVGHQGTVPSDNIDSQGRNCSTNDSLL
Test: Adrenergic β2 mediated cAMP production in H292 cells (AlphaScreen), concentration response
Type: cell-based
Details: 60 min, 300 μM rolipram, read-out: β2 pEC50 (converted)
# criterion met = EC50 below 200 nM (exclusive); criterion not met = EC50 at/above 200 nM

The examples below pair each entry with its known result.
[
  {
    "molecule": "CC(C)c1nc(C(=O)N2CCOC3(CCN(Cc4cccc(CCOCCC(=O)N(CCF)CCNCCc5ccc(O)c6c5OCC(=O)N6)c4F)CC3)C2)cs1 [Example 72, ditrifluoroacetate]",
    "class.name": "criterion met"
  },
  {
    "molecule": "O=C1COc2c(CCNCCN(C(=O)CCOCCc3cccc(CN4CCC5(CC4)CN(C(=O)C4COc6ccccc6O4)CCO5)c3)C3CCCCC3)ccc(O)c2N1 (stereo not drawn) [Example 115]",
    "class.name": "criterion met"
  },
  {
    "molecule": "O=C1COc2c(CCNCCN(C(=O)CCOCCc3cccc(CN4CCC5(CC4)CN(C(=O)c4csc(-c6ccccc6)n4)CCO5)c3)C3CCCCC3)ccc(O)c2N1 [Example 82]",
    "class.name": "criterion not met"
  }
]

Q: Quick check: EC50 of CCN(CCNCCc1ccc(O)c2[nH]c(=O)sc12)C(=O)CCOCCc1ccc(F)c(CN2CCC3(CC2)CN(C(=O)c2csc(C(C)C)n2)CCO3)c1 [Example 44] under 200 nM?
A: criterion not met

Q: Quick check: EC50 of CC(C)c1cc(C(=O)N2CCOC3(CCN(Cc4cccc(CCOCCC(=O)N(CCNCCc5ccc(O)c6c5OCC(=O)N6)C5CCCCC5)c4)CC3)C2)no1 [Example 147] under 200 nM?
A: criterion met

====

β2 Intrinsic Activity reference
Target: Adrenergic β2 (Homo sapiens, UniProt P07550)
Construct: Adherent H292 cells are removed from tissue culture flasks by treatment with Accutase™ cell detachment solution; endogenous in cells; host or cells: H292 cells
Assay: Adrenergic β2 mediated cAMP production in H292 cells (AlphaScreen), concentration response
Assay type: cell-based
Conditions: fraction relative to the maximum activity determined for formoterol

Consider the following illustrative entries.
[
  {
    "compound": "COCCN(CCNCCc1ccc(O)c2c1OCC(=O)N2)C(=O)CCOCCc1cccc(CN2CCC3(CC2)CN(C(=O)c2csc(C(C)C)n2)CCO3)c1Cl [Example 70, ditrifluoroacetate]",
    "β2 Intrinsic Activity": 1.0
  },
  {
    "compound": "CCCCc1nc(C(=O)N2CCOC3(CCN(Cc4cccc(CCOCCC(=O)N(CC)CCNCCc5ccc(O)c6c5OCC(=O)N6)c4Cl)CC3)C2)cs1 [Example 77, ditrifluoroacetate]",
    "β2 Intrinsic Activity": 0.8
  },
  {
    "compound": "CCN(CCNCCc1ccc(O)c2[nH]c(=O)sc12)C(=O)CCOCCc1cccc(OCCCN2CCC3(CC2)CN(C(=O)c2csc(C(C)C)n2)CCO3)c1 [Example 61, ditrifluoroacetate]",
    "β2 Intrinsic Activity": 0.7
  },
  {
    "compound": "CCN(CCNCCc1ccc(O)c2[nH]c(=O)sc12)C(=O)CCOCCc1cccc(CN2CCC3(CC2)CN(C(=O)c2csc(C(C)C)n2)CCO3)c1F [Example 10, ditrifluoroacetate]",
    "β2 Intrinsic Activity": 0.8
  }
]

So, CC(C)c1nc(C(=O)N2CCOC3(CCN(CCc4cccc(CCOCCC(=O)N(CCNCCc5ccc(O)c6c5OCC(=O)N6)C5CCCC5)c4)CC3)C2)cs1 [Example 39, ditrifluoroacetate] ? Its β2 Intrinsic Activity was 1.0

====

Biological target: Adrenergic β2 (Homo sapiens)
Construct: Adherent H292 cells are removed from tissue culture flasks by treatment with Accutase™ cell detachment solution; endogenous in cells; host or cells: H292 cells
Test: Adrenergic β2 mediated cAMP production in H292 cells (AlphaScreen), concentration response
Assay type: cell-based
Conditions: fraction relative to the maximum activity determined for formoterol
Where a name gives a salt, the structure may show the parent alone.
parameter: β2 Intrinsic Activity
Note: the reply should be a number with no unit written.

So, CCN(CCNCCc1ccc(O)c2c1OCC(=O)N2)C(=O)CCOCCc1cccc(CCN2CC3(C2)CN(C(=O)c2csc(C(C)C)n2)CCO3)c1 [Example 177, trifluoroacetate salt] ? Its β2 Intrinsic Activity was 1.1

So, CC(C)c1nc(C(=O)N2CCOC3(CCN(Cc4cccc(CCOCCC(=O)N(C)CCNCCc5ccc(O)c6[nH]c(=O)sc56)c4F)CC3)C2)cs1 [Example 13, ditrifluoroacetate] ? Its β2 Intrinsic Activity was 0.8

So, CCc1cc(C(=O)N2CCOC3(CCN(Cc4cccc(CCOCCC(=O)N(CCNCCc5ccc(O)c6c5OCC(=O)N6)C5CCCCC5)c4)CC3)C2)cs1 ? Its β2 Intrinsic Activity was 1.0

====

Target: human muscarinic acetylcholine M3 receptor (Homo sapiens, UniProt P20309)
Construct: expressed in transfected cells; host or cells: CHO-K1 (Chinese Hamster Ovary) cell membranes
Sequence (P20309 whole entry): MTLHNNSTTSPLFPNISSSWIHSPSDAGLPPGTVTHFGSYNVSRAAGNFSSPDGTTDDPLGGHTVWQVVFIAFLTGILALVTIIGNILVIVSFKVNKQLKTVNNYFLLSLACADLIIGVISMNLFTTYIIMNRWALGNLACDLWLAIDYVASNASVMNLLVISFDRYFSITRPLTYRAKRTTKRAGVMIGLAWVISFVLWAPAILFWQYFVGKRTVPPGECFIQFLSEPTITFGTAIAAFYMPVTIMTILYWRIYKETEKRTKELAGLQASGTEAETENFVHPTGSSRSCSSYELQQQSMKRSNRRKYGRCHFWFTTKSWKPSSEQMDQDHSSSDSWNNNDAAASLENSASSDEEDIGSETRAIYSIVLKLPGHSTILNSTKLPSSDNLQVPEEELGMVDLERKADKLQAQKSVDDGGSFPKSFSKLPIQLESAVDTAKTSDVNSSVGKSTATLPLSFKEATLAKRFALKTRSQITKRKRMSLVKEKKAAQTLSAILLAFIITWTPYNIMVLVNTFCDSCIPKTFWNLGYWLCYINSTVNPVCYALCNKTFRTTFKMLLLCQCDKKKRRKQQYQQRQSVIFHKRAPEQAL
Assay: Muscarinic 3 receptor binding assay ([3H]NMS competition, SPA), single concentration 1 μM
Settings: 1 μM compound; % inhibition specific [3H]-NMS binding
parameter: inhibition at 1 µM (%)
Your answer is read as %, so omit the unit and give the number.

Consider the following illustrative entries.
[
  {
    "smiles.code": "O=C1COc2c(CCNCCN(C(=O)CCOCCc3cccc(CN4CCC5(CC4)CN(C(=O)CC46CC7CC(CC(O)(C7)C4)C6)CCO5)c3)C3CCCCC3)ccc(O)c2N1",
    "system.under.test": "human muscarinic acetylcholine M3 receptor (Homo sapiens, UniProt P20309)",
    "inhibition at 1 µM (%)": 94
  },
  {
    "smiles.code": "N#Cc1ccc(C(=O)N2CCOC3(CCN(Cc4cccc(CCOCCC(=O)N(CCNCCc5ccc(O)c6c5OCC(=O)N6)C5CCCCC5)c4)CC3)C2)cc1",
    "system.under.test": "human muscarinic acetylcholine M3 receptor (Homo sapiens, UniProt P20309)",
    "inhibition at 1 µM (%)": 93
  }
]

So, O=C1COc2c(CCNCCN(C(=O)CCOCCc3cccc(CN4CCC5(CC4)CN(C(=O)c4n[nH]cc4Cl)CCO5)c3)C3CCCCC3)ccc(O)c2N1 ? Its inhibition at 1 µM was 101

====

Molecular target: Adrenergic β2 (Homo sapiens)
Construct: Adherent H292 cells are removed from tissue culture flasks by treatment with Accutase™ cell detachment solution; endogenous in cells; host or cells: H292 cells
Assay: Adrenergic β2 mediated cAMP production in H292 cells (AlphaScreen), concentration response
Type: cell-based
Details: 60 min, 300 μM rolipram, read-out: β2 pEC50 (converted)
EC50 reference
Your answer is read as nM, so omit the unit and give the number.

Consider the following illustrative entries.
[
  {
    "molecule": "CC(C)c1nc(C(=O)N2CCOC3(CCN(Cc4cccc(COCCOCCC(=O)N(CCNCCc5ccc(O)c6c5OCC(=O)N6)C5CCCCC5)c4)CC3)C2)cs1 [Example 67, ditrifluoroacetate]",
    "parameter": "EC50",
    "value.observed": 31.6
  },
  {
    "molecule": "CCN(CCNCCc1ccc(O)c2[nH]c(=O)sc12)C(=O)CCOCCc1cccc(CN2CCC3(CC2)CN(C(=O)c2csc(C(C)C)n2)CCO3)c1F [Example 10, ditrifluoroacetate]",
    "parameter": "EC50",
    "value.observed": 31.6
  },
  {
    "molecule": "CCN(CCNCCc1ccc(O)c2[nH]c(=O)sc12)C(=O)CCOCCc1ccc(OCCCN2CCC3(CC2)CN(C(=O)c2csc(C(C)C)n2)CCO3)cc1 [Example 62, ditrifluoroacetate]",
    "parameter": "EC50",
    "value.observed": 100
  },
  {
    "molecule": "O=C1COc2c(CCNCCN(C(=O)CCOCCc3cccc(CN4CCC5(CC4)CN(C(=O)c4ccc6sccc6c4)CCO5)c3)C3CCCCC3)ccc(O)c2N1 [Example 92]",
    "parameter": "EC50",
    "value.observed": 251
  }
]

We now examine a further molecule.
So, CCCCN(CCNCCc1ccc(O)c2c1OCC(=O)N2)C(=O)CCOCCc1ccc(CCN2CCC3(CC2)CN(C(=O)c2csc(C(C)C)n2)CCO3)cc1 [Example 4, ditrifluoroacetate] ? Its EC50 was 25.1

Where these numbers come from: patent US8476265B2
